# reported Factor G activation inhibiting titer; entries follow
# Experimental System: factor G fraction of LAL (Tachypleus tridentatus, UniProt Q27082)
# Construct: Prepared from horseshoe crab, T. tridentatus; from tissue; host or cells: horseshoe crab amebocyte lysate (LAL), factor G fraction
# Sequence (Q27082 20-673): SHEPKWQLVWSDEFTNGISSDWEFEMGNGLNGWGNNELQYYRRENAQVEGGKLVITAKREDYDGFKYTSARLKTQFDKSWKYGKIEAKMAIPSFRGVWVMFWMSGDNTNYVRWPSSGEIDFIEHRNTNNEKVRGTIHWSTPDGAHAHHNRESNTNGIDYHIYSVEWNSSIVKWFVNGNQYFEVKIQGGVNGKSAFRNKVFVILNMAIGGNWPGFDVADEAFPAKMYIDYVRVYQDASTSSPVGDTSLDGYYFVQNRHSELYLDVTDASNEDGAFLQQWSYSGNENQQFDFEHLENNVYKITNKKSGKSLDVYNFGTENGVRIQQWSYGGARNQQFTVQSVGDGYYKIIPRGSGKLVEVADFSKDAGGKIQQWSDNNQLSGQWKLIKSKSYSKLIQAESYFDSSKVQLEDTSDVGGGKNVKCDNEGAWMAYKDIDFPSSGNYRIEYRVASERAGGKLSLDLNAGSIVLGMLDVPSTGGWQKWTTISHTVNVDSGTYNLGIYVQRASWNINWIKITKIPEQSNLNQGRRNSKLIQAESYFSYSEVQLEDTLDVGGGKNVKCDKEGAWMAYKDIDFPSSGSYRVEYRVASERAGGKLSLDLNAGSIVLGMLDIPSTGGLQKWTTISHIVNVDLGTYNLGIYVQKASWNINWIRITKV
# Sequence (Q27083 32-309 partner): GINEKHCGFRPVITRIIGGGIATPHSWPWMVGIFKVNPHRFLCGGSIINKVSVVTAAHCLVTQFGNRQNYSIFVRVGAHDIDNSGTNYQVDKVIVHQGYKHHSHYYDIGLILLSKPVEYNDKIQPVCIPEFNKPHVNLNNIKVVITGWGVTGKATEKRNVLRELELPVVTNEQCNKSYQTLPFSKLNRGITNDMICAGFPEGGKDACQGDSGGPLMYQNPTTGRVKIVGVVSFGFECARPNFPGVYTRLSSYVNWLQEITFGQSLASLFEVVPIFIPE
# Experimental Protocol: Method of measuring the titer of the activity of a factor G activation inhibitor (GI)
# Type: biochemical, T. tridentatus
# Condition Description: 10 pg factor G activating substance (sample No. 106), 37° C. 30 minutes; 100% inhibition = 100 units

Consider the following illustrative entries.
OC[C@H]1OC(O)[C@H](O)[C@@H](O)[C@@H]1O (stereo partly shown) [compound 108, Glucose, reference compound] | < 100 units/mg
OC[C@H]1O[C@@H](O[C@@H]2[C@@H](O)[C@H](O[C@@H]3[C@@H](O)[C@H](O[C@@H]4[C@@H](O)[C@H](O[C@H]5[C@H](O)[C@@H](CO)OC(O)[C@@H]5O)O[C@H](CO)[C@H]4O)O[C@H](CO)[C@H]3O)O[C@H](CO)[C@H]2O)[C@H](O)[C@@H](O)[C@@H]1O (stereo partly shown) | 39,800 units/mg
OC[C@H]1O[C@@H](O[C@@H]2[C@@H](O)[C@H](O[C@@H]3[C@@H](O)[C@H](O[C@H]4[C@H](O)[C@@H](CO)OC(O)[C@@H]4O)O[C@H](CO)[C@H]3O)O[C@H](CO)[C@H]2O)[C@H](O)[C@@H](O)[C@@H]1O (stereo partly shown) | 20,000 units/mg

Kindly consider the entry below.
Q: Record OCC1OC(OC2C(O)C(CO)OC(OC3C(O)C(CO)OC(OC4C(O)C(CO)OC(OC5C(O)C(CO)OC(OC6C(O)C(CO)OC(OC7C(O)C(O)OC(CO)C7O)C6O)C5O)C4O)C3O)C2O)C(O)C(O)C1O (stereo not shown) : what is its Factor G activation inhibiting titer with factor G fraction of LAL (Tachypleus tridentatus, UniProt Q27082)?
Result: 103,000 units/mg

Cited source for all entries: patent US5474984A
